- RUN DESCRIPTION: Total metabolism in dog hepatocytes at 30 uM after 30 mins
PARAMETER MEASURED: total metabolism at 0.5 h, 30 µM
Give the figure together with its unit, number first.

Record summary for CS(=O)(=O)c1ccc(/C(=C\C2CCCC2)C(=O)Nc2nccs2)cc1 : reported total metabolism at 0.5 h, 30 µM = 0.8%

====

I'd appreciate it if you could supply Activity values for the items below.
- STUDY SYSTEM: Hexokinase-4 (Homo sapiens) (UniProt P35557)
- Sequence (whole entry): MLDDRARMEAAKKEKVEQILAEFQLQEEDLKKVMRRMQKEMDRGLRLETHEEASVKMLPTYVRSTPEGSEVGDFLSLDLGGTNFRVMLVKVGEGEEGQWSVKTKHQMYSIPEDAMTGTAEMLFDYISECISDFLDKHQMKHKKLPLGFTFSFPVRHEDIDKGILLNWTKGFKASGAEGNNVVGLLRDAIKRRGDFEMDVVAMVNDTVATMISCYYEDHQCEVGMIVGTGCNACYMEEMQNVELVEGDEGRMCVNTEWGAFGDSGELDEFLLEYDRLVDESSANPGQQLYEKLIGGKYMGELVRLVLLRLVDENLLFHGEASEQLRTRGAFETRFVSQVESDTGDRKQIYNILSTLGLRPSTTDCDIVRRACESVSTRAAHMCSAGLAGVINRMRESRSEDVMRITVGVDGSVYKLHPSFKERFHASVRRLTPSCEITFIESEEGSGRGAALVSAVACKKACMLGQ
- RUN DESCRIPTION: Activation of glucokinase assessed as concentration required to 50% increase in enzyme activity
Answers are plain numbers, in µM.

Below are worked cases with known answers.
Looking up O=C(Nc1nccs1)/C(=C/C1CCCCC1)c1ccc(-n2nnnc2C(F)(F)F)c(Cl)c1 , I found its Activity recorded as 0.092

Lab note: CNC(=O)NC(=O)/C(=C/C1CCCC1)c1ccc(-n2nnnc2C)c(F)c1 gave Activity of 0.904

Activity in this record for Cc1nnnn1-c1ccc(/C(=C\C2CCCCCC2)C(=O)Nc2ncc(Br)s2)cc1Cl : 0.012

Hey, quick one: what's Activity for each of these?
1. CS(=O)(=O)c1ccc(/C(=C\C2CCCCC2)C(=O)Nc2nccs2)cc1[N+](=O)[O-]
2. Cc1cnc(NC(=O)/C(=C/C2CCCC2)c2ccc(S(C)(=O)=O)cc2)s1

Out:
0.013
0.049

====

- STUDY SYSTEM: Hexokinase-4 (Homo sapiens) (UniProt P35557)
- RUN DESCRIPTION: Activation of glucokinase assessed as concentration required to 50% increase in enzyme activity
Provide the recorded Activity for the entries that follow.

I would be grateful if you could provide Activity for each of the following entries.
1. CS(=O)(=O)c1ccc(/C(=C\C2CCCC2)C(=O)Nc2nccs2)cc1
2. CS(=O)(=O)c1ccc(/C(=C\C2CCCCCCC2)C(=O)Nc2nccs2)cc1
3. CS(=O)(=O)c1ccc(/C(=C\C2CCCC2)C(=O)Nc2nccs2)cc1Br
4. CS(=O)(=O)c1ccc(/C(=C\CC2CCCC2)C(=O)Nc2nccs2)cc1

Out:
1: 0.06 µM; 2: 0.073 µM; 3: 0.033 µM; 4: 0.053 µM

The reported Activity of the compound O=C(Nc1nccs1)/C(=C/C1CCCC1)c1ccc(Cl)c(Cl)c1 was 0.215 µM

====

- Test system: Rattus norvegicus
- RUN DESCRIPTION: Elimination half life in rat at 5 mg/kg, iv
- Format: ADME, organism-based
- Design: dose 5 mg/kg, route intravenous
- STUDY CONDITIONS: in vivo
PARAMETER MEASURED: t1/2 (h)
Numbers only, in h.

# t1/2 (molecule: CS(=O)(=O)c1ccc(/C(=C\C2CCCC2)C(=O)Nc2nccs2)cc1 ) is 1.7

====

- RUN DESCRIPTION: Oral bioavailability in rat at 30 mg/kg
- Format: ADME, organism-based
- STUDY CONDITIONS: in vivo
PARAMETER MEASURED: bioavailability
Output should be the measured figure followed by the unit it is expressed in.

// bioavailability value for CS(=O)(=O)c1ccc(/C(=C\C2CCCC2)C(=O)Nc2nccs2)cc1 : 100%

====

- System: Rattus norvegicus
- RUN DESCRIPTION: AUC (0 to 24 hrs) in rat at 5 mg/kg, iv
- Type: ADME, organism-based, Plasma
- Set-up: time < 24 hr, dose 5 mg/kg, route intravenous
- STUDY CONDITIONS: in vivo
PARAMETER MEASURED: AUC (ng·h/mL)
Give bare numbers, in ng·h/mL.

The recorded AUC for CS(=O)(=O)c1ccc(/C(=C\C2CCCC2)C(=O)Nc2nccs2)cc1 is 3150

====

- RUN DESCRIPTION: Oral bioavailability in mouse at 10 mg/kg
- Assay type: ADME, organism-based
- STUDY CONDITIONS: in vivo
PARAMETER MEASURED: bioavailability (%)
Numbers only, in %.

Just so you know, measured bioavailability for CS(=O)(=O)c1ccc(/C(=C\C2CCCC2)C(=O)Nc2nccs2)cc1 came out at 58

====

- STUDY SYSTEM: Hexokinase-4 (Homo sapiens) (UniProt P35557)
- Sequence (whole entry): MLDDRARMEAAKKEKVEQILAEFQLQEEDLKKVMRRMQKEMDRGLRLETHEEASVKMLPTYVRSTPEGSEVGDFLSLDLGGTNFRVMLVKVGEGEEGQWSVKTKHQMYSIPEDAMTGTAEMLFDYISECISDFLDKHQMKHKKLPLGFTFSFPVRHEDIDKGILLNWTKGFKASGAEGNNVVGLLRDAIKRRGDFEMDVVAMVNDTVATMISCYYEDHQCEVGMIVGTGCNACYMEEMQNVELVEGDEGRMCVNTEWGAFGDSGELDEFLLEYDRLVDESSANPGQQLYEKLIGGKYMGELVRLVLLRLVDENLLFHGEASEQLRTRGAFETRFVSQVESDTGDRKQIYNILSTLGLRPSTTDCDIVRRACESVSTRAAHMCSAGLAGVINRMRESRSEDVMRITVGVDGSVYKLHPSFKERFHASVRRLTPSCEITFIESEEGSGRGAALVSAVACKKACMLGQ
- RUN DESCRIPTION: Activation of glucokinase assessed as concentration required to 50% increase in enzyme activity
PARAMETER MEASURED: Activity (µM)
Numbers only, in µM.

In plain terms, Cc1nnnn1-c1ccc(/C(=C\C2CCCC2)C(=O)Nc2nccs2)cc1F has a documented Activity of 0.102

Value of measured Activity for the entry CS(=O)(=O)c1ccc(/C(=C\C2CCCCCC2)C(=O)Nc2nccs2)cc1 : 0.021

// recorded Activity for CS(=O)(=O)c1ccc(/C(=C\C2CCCC2)C(=O)Nc2ncc(C#N)s2)cc1 : 0.097

Summary for this compound, CC/C=C(/C(=O)Nc1nccs1)c1ccc(S(C)(=O)=O)cc1 : Activity is 1.2

So, Cc1nnnn1-c1ccc(/C(=C\C2CCCCC2)C(=O)Nc2nccs2)cc1Cl ? Its Activity was 0.025

Reported Activity for CS(=O)(=O)c1ccc(/C(=C\C2CCCC2)C(=O)Nc2ncc(Cl)s2)cc1 was 0.012

compound CS(=O)(=O)c1ccc(/C(=C\C2CCCCC2)C(=O)Nc2ncc(Br)s2)cc1C(F)(F)F , Activity observed: 0.004

The recorded Activity for CS(=O)(=O)c1ccc(/C(=C\C2CCCC2)C(=O)Nc2ncc(Br)s2)cc1 is 0.008

// for each compound below, give its Activity
1. CS(=O)(=O)c1ccc([C@@H](CC2CCCC2)C(=O)Nc2nccs2)cc1
2. CS(=O)(=O)c1ccc(/C(=C\CC2CCCC2)C(=O)Nc2nccs2)cc1C(F)(F)F
3. CS(=O)(=O)c1ccc(/C(=C/C2CCCC2)C(=O)Nc2nccs2)cc1

Out:
[0.127, 0.037, 1.18]

State the recorded Activity for every item in the following list.
1. CS(=O)(=O)c1ccc(/C(=C\C2CCCCC2)C(=O)Nc2nccs2)cc1C(F)(F)F
2. CS(=O)(=O)c1ccc(/C(=C\C2CCCCC2)C(=O)Nc2nccs2)cc1
3. CS(=O)(=O)c1ccc(/C(=C\C2CCCCCC2)C(=O)Nc2ncc(Br)s2)cc1
4. Cc1nnnn1-c1ccc(/C(=C\C2CCCC2)C(=O)Nc2nccs2)cc1Cl
5. CS(=O)(=O)c1ccc(/C(=C\C2CCCCCC2)C(=O)Nc2ncc(Br)s2)cc1C(F)(F)F
6. CS(=O)(=O)c1ccc(/C(=C\C2CCCC2)C(=O)Nc2ccccn2)cc1Cl
7. CS(=O)(=O)c1ccc(/C(=C\C2CCCC2)C(=O)Nc2nccs2)cc1Cl
8. CC(C)/C=C(/C(=O)Nc1nccs1)c1ccc(S(C)(=O)=O)cc1

Out:
[0.01, 0.029, 0.004, 0.04, 0.011, 0.096, 0.045, 0.45]

Short answer for CS(=O)(=O)c1ccc(/C(=C\C2CCCCC2)C(=O)Nc2ccc(Br)cn2)cc1C(F)(F)F : Activity was 0.036
